Attribution: patent US9980943B2

# Test system: β-galactosidase in CMV-LacZ C2C12 myotubes
# method: CMV-LacZ secondary screen in C2C12 myotubes (β-Gal stabilizing assay)
# Type: cell-based, mouse
# assayContext: 10 uM; C2C12 CMV-LacZ myotubes; fold relative to DMSO
experimentalReadout: CMV-LACZ in Myotubes, signal relative to DMSO
The answer should be written as a number, with no unit following it.

Give CMV-LACZ in Myotubes, signal relative to DMSO for CCC(=O)c1ccc(OCC(O)CN2CC(C)OC(C)C2)cc1.O=C(O)C(=O)O (stereo not drawn)
0.9187

Give a short answer stating reported CMV-LACZ in Myotubes, signal relative to DMSO for "CCOc1ccc(NC(=O)CN2C(=O)S/C(=C/c3cccn3C)C2=O)cc1" .
1.107

Write down CMV-LACZ in Myotubes, signal relative to DMSO measured for item "O=c1[nH]c(SCc2ccc(Cl)cc2)nc2ccsc12"
1.0591
